Measured Wheat, Spring plant response rating by item
test system: wheat, spring; experiment: Test D postemergence; type: in vivo, Triticum aestivum; conditions: Postemergence, 250 g ai/ha, scale 0 to 100
In your answer, state the number alone without any accompanying words.

// below: answered molecules
>>> experimental_result("CCCc1cc(C(=O)NCC(F)(F)F)nn1Cc1ccnc(C(F)(F)F)c1 [Compound 105]")
40
>>> experimental_result("CCCc1cc(C(=O)NCC(F)(F)F)nn1Cc1cc(C(F)(F)F)nn1C [Compound 138]")
25
>>> experimental_result("CCOc1cc(C(=O)NC(C)C)nn1Cc1ccnc(C(F)(F)F)c1 [Compound 188]")
40

Here is the next item to consider.
Entry CCc1cc(C(=O)NCC(F)(F)F)nn1Cc1ccnc(C(F)(F)F)c1 [Compound 78] — recorded Wheat, Spring plant response rating = 25
